- target-of-assay: human 5-HT2C receptor (Homo sapiens, UniProt P28335)
- Sequence (P28335 33-458): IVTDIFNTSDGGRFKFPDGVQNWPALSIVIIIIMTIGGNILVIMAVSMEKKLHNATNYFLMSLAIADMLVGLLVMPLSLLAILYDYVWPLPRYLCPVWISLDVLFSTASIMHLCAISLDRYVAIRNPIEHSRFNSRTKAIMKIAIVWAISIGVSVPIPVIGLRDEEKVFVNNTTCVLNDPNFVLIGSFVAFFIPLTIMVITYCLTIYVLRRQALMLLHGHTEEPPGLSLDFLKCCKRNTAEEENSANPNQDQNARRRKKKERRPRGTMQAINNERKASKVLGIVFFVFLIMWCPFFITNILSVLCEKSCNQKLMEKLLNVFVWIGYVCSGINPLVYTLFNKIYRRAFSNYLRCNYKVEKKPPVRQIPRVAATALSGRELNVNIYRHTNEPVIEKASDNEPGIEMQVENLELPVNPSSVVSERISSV
- measurement-description: Stimulation of [3H] Inositol Monophosphate production by 5HT2C agonists in transfected CHO cells
Hi there, I'd appreciate the recorded EC50 for every entry that follows.
Unit nM implied. Number only.

Recorded EC50 (molecule c1cc2c3c(c1)c1c(n3CCNC2)CCCC1 ): 426

Entry c1cc2c3c(c1)C1CCCCC1N3CCNC2 (centres unmarked) — recorded EC50 = 207

---

Would you kindly list Ki for each of these molecules?
- target-of-assay: human 5-hydroxytryptamine2C (h5HT2C) receptor (Homo sapiens, UniProt P28335)
- Construct: expressed in transfected cells; host or cells: CHO (Chinese Hamster Ovary) cells; membrane preparation
- measurement-description: 5HT2C Receptor Binding Test Procedure ([125I]DOI displacement, CHO cell membranes)
- conditions: read-out: Ki value and 95% confidence interval (reference compounds)
Note: unit nM is implicit; provide only the numeric part.

// sample CN1CCN(C2=Nc3ccccc3Oc3ccc(Cl)cc32)CC1 , its Ki was 33

Kindly note the recorded Ki for Cc1nc2sccn2c(=O)c1CCN1CCC(=C(c2ccc(F)cc2)c2ccc(F)cc2)CC1 , which is 2

Entry source: patent US20020086860A1
